test system: anaesthesized rats; experiment: wheal test, intradermal injection; type: in vivo, rat; settings: Table I; 10 ug peptide intradermally
Non-standard residues stand in square brackets, D forms with d. Residues, ends and D or L forms follow the SMILES beside them. *: point of attachment. dPhe(4-Cl) = N[C@H](Cc1ccc(Cl)cc1)C(=O)O; d2Nal = N[C@H](Cc1ccc2ccccc2c1)C(=O)O; dLys(iPr) = CC(C)NCCCC[C@@H](N)C(=O)O; Lys(iPr) = CC(C)NCCCC[C@H](N)C(=O)O; NH(4-MeO-phenyl) = COc1ccc(N*)cc1; d3Pal = N[C@H](Cc1cccnc1)C(=O)O; Nicotinoyl = O=C(c1cccnc1)*
assay-endpoint: Wheal (mm^2 /10)
Report as a plain number; the unit mm^2 /10 is understood.

Exam item: Given the entry CC(=O)N[C@H](Cc1ccc2ccccc2c1)C(=O)N[C@H](Cc1ccc(Cl)cc1)C(=O)N[C@H](Cc1cccnc1)C(=O)N[C@@H](CO)C(=O)N[C@@H](CCCCNC(C)C)C(=O)N[C@H](CCCCNC(=O)c1cccnc1)C(=O)N[C@@H](CC(C)C)C(=O)N[C@@H](CCCCNC(C)C)C(=O)N1CCC[C@H]1C(=O)N[C@H](C)C(N)=O [compound 24543] (Ac-[d2Nal][dPhe(4-Cl)][d3Pal]S[Lys(iPr)][dK](Nicotinoyl)L[Lys(iPr)]P[dA]-NH2) , report its measured Wheal.
Marked response: 132.7

Exam item: Same thing, different compound: CC(=O)N[C@H](Cc1ccc2ccccc2c1)C(=O)N[C@H](Cc1ccc(Cl)cc1)C(=O)N[C@H](Cc1cccnc1)C(=O)N[C@@H](CO)C(=O)N[C@@H](CCCCNC(=O)c1cccnc1)C(=O)N[C@H](CCCCNC(=O)c1cccnc1)C(=O)N[C@@H](CC(C)C)C(=O)N[C@@H](CCCNC(=N)N)C(=O)N1CCC[C@H]1C(=O)N[C@H](C)C(N)=O [compound 24594] (Ac-[d2Nal][dPhe(4-Cl)][d3Pal]SK(Nicotinoyl)[dK](Nicotinoyl)LRP[dA]-NH2)
Marked response: 126.2

Exam item: Same thing, different compound: COc1ccc(NC(=O)CC[C@@H](NC(=O)[C@H](CCCCNC(=O)c2cccnc2)NC(=O)[C@H](CO)NC(=O)[C@@H](Cc2cccnc2)NC(=O)[C@@H](Cc2ccc(Cl)cc2)NC(=O)[C@@H](Cc2ccc3ccccc3c2)NC(C)=O)C(=O)N[C@@H](CC(C)C)C(=O)N[C@@H](CCCCNC(C)C)C(=O)N2CCC[C@H]2C(=O)N[C@H](C)C(N)=O)cc1 [compound 25588] (Ac-[d2Nal][dPhe(4-Cl)][d3Pal]SK(Nicotinoyl)[dE](NH(4-MeO-phenyl))L[Lys(iPr)]P[dA]-NH2)
Marked response: 113

Exam item: Same thing, different compound: CC(=O)N[C@H](Cc1ccc2ccccc2c1)C(=O)N[C@H](Cc1ccc(Cl)cc1)C(=O)N[C@H](Cc1cccnc1)C(=O)N[C@@H](CO)C(=O)N[C@@H](CCCCNC(=O)c1cccnc1)C(=O)N[C@H](CCCCNC(C)C)C(=O)N[C@@H](CC(C)C)C(=O)N[C@@H](CCCNC(=N)N)C(=O)N1CCC[C@H]1C(=O)N[C@H](C)C(N)=O [compound 24754] (Ac-[d2Nal][dPhe(4-Cl)][d3Pal]SK(Nicotinoyl)[dLys(iPr)]LRP[dA]-NH2)
Marked response: 196.9

Exam item: Same thing, different compound: CC(=O)N[C@H](Cc1ccc2ccccc2c1)C(=O)N[C@H](Cc1ccc(Cl)cc1)C(=O)N[C@H](Cc1cccnc1)C(=O)N[C@@H](CO)C(=O)N[C@@H](Cc1ccc(O)cc1)C(=O)N[C@H](CCCCNC(C)C)C(=O)N[C@@H](CC(C)C)C(=O)N[C@@H](CCCCNC(=O)c1cccnc1)C(=O)N1CCC[C@H]1C(=O)N[C@H](C)C(N)=O [compound 24824] (Ac-[d2Nal][dPhe(4-Cl)][d3Pal]SY[dLys(iPr)]LK(Nicotinoyl)P[dA]-NH2)
Marked response: 122.8

// data source = patent US5763404A
